The reported measurements were obtained from PubChem BioAssay AID504702.

Test: M. tuberculosis growth inhibition with meropenem, dose response, H37Rv, set 2 (AID 504702);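 further: growth read by Alamar Blue after 7 days plus overnight incubation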
Details: M. tuberculosis H37Rv with meropenem, growth inhibition; at 25 µM (top of the series)
growth inhibition: recorded values
assayMetric: growth inhibition (%)

# molecule, unitsLabel, recordedMeasurement
data = [
    ("COC(=O)c1c(C)[nH]c2ccc(Cl)cc12", "%", -8.83),
    ("Cc1cc2cc(F)ccc2[nH]1", "%", 1.92),
    ("COc1ccc2nc(NC(=O)COc3c(C)cc(C)cc3C)sc2c1", "%", -3.9),
    ("N/C(=N\\c1nc2ccccc2o1)NC(=O)COc1ccc2ccccc2c1", "%", -2.85),
    ("CC(=O)c1c(C)n(-c2ccc(C)cc2)c2ccc(O)cc12", "%", -1.38),
    ("CC(Oc1ccccc1)C(=O)Nc1nc2ccc(S(C)(=O)=O)cc2s1 (configuration not stated)", "%", -1.72),
    ("Cc1cc2cc(O)ccc2[nH]1", "%", 1.86),
]

----------
Test: M. tuberculosis growth inhibition with meropenem, dose response, H37Rv, set 2 (AID 504702);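 further: growth read by Alamar Blue after 7 days plus overnight incubation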
Details: M. tuberculosis H37Rv with meropenem, growth inhibition; at 18.8 µM (top of the series)
Measured growth inhibition by item

# mol, growth inhibition (%)
rows = [
    ("CC(C)Cn1c2c(c(O)c(C(=O)Nc3nccs3)c1=O)CCCC2", 3.14),
    ("CCOc1ccc2nc(NC(=O)c3cnccn3)sc2c1", -0.94),
    ("Cc1ccccc1OCC(=O)Nc1ccccc1-c1ccccc1", 23.6),
    ("COc1cccc(-c2ccc(-c3noc(-c4ccccc4F)n3)c(OC)n2)c1", 5.58),
    ("Cc1cc(C)c(OCC(=O)Nc2nc3ccccc3[nH]2)c(C)c1", 5.17),
    ("S=C(Nc1ccccc1)Nc1ccc(Cl)cn1", 1.73),
    ("O=C(Cc1ccccc1Cl)Nc1nc2ccccc2[nH]1", -1.22),
    ("O=C(CC12CC3CC(CC(C3)C1)C2)NCc1ccc(F)cc1", -0.16),
]

----------
Assay: M. tuberculosis growth inhibition with meropenem, dose response, H37Rv, set 2 (AID 504702);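 further: growth read by Alamar Blue after 7 days plus overnight incubation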
Settings: M. tuberculosis H37Rv with meropenem, growth inhibition; at 25 µM (top of the series)
The source made the active and inactive calls. How the calls were made is not given here.
assayMetric: growth inhibition

# mol, assayMetric, recordedMeasurement
measured = [
    ("Cc1ccc(OCC(=O)Nc2cccc3c(NC(=O)COc4ccc(C)cc4C)cccc23)c(C)c1", "growth inhibition", "-7.16% (inactive)"),
    ("N/C(=N\\c1nc2ccccc2o1)NC(=O)c1ccccc1F", "growth inhibition", "-5.8% (inactive)"),
    ("CC(=O)Nc1ccc2nc(NC(=O)COc3ccccc3)sc2c1", "growth inhibition", "-0.49% (inactive)"),
    ("COc1ccc2nc(NC(=O)c3oc4ccccc4c3C)sc2c1", "growth inhibition", "-4.34% (inactive)"),
    ("CC(=O)Nc1ccc2nc(NC(=O)Cc3ccccc3)sc2c1", "growth inhibition", "-7.72% (inactive)"),
    ("CCOc1ccc2[nH]ccc2c1", "growth inhibition", "2.77% (inactive)"),
    ("COC(=O)c1c(C)[nH]c2ccc(F)cc12", "growth inhibition", "-3.53% (inactive)"),
    ("COc1ccc2nc(NC(=O)COc3ccc(Cl)cc3)sc2c1", "growth inhibition", "0.35% (inactive)"),
    ("CCOc1ccc2nc(NC(=O)COc3ccc(OC)cc3)sc2c1", "growth inhibition", "-8.22% (inactive)"),
    ("CCOC(=O)c1c(C)[nH]c2ccccc12", "growth inhibition", "-5.69% (inactive)"),
    ("O=C(CC12CC3CC(CC(C3)C1)C2)NCc1ccc(F)cc1", "growth inhibition", "-0.41% (inactive)"),
    ("Cc1cc2cc(F)ccc2n1-c1ccccc1", "growth inhibition", "5.53% (inactive)"),
]
